- measured-target: AmpC SBL from Escherichia coli (AmpCEC) (Escherichia coli)
- Construct: made in house
- Sequence (P00811 20-377): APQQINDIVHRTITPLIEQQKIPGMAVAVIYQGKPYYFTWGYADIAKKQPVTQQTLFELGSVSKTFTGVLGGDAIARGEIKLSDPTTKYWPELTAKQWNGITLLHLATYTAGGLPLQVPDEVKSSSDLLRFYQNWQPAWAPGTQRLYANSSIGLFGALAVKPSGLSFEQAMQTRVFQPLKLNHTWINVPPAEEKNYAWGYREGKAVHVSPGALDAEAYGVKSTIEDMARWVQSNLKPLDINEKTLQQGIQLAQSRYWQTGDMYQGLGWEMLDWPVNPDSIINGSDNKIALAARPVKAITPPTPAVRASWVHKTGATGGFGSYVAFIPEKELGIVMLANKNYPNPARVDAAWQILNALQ
- method-notes: Steady-state competitive inhibition kinetics of AmpCEC with fluorescent substrate FC-5 (kobs, Kiapp, k2/K); as to kobs: unit not given here
- Format: biochemical
- condition-context: [DBO] 0.04 µM
reported-metric: kobs

INSERT INTO measurements (smiles_string, test_result) VALUES
  ('NC(=O)[C@@H]1CC[C@@H]2CN1C(=O)N2OS(=O)(=O)O', '0.135 ± 0.002'),
  ('O=C(NC1CCNCC1)[C@@H]1CC[C@@H]2CN1C(=O)N2OS(=O)(=O)O', '0.134 ± 0.007'),
  ('NCCONC(=O)[C@@H]1CC[C@@H]2CN1C(=O)N2OS(=O)(=O)O', '0.142 ± 0.003'),
  ('O=C(NNC(=O)[C@@H]1CC[C@@H]2CN1C(=O)N2OS(=O)(=O)O)[C@@H]1CCCNC1', '0.150 ± 0.002');

* * *

- measured-target: AmpC SBL from Escherichia coli (AmpCEC) (Escherichia coli)
- Construct: made in house
- method-notes: Steady-state competitive inhibition kinetics of AmpCEC with fluorescent substrate FC-5 (kobs, Kiapp, k2/K); as to kobs: unit not given here
- Format: biochemical
reported-metric: Ki (µM)

INSERT INTO measurements (smiles_string, reported_metric, test_result) VALUES
  ('O=C(NNC(=O)[C@@H]1CC[C@@H]2CN1C(=O)N2OS(=O)(=O)O)[C@@H]1CCCNC1', 'Ki', 0.69),
  ('O=C(NC1CCNCC1)[C@@H]1CC[C@@H]2CN1C(=O)N2OS(=O)(=O)O', 'Ki', 7.1),
  ('NCCONC(=O)[C@@H]1CC[C@@H]2CN1C(=O)N2OS(=O)(=O)O', 'Ki', 5);

* * *

- measured-target: AmpC SBL from Escherichia coli (AmpCEC) (Escherichia coli)
- Construct: made in house
- method-notes: AmpCEC inhibition pIC50 with varied preincubation time and pH (FC-5)
- Format: biochemical
- condition-context: pIC50, 0 min preincubation, pH 8.0
reported-metric: IC50

INSERT INTO measurements (smiles_string, test_result) VALUES
  ('NCCONC(=O)[C@@H]1CC[C@@H]2CN1C(=O)N2OS(=O)(=O)O', '141 nM'),
  ('O=C(NC1CCNCC1)[C@@H]1CC[C@@H]2CN1C(=O)N2OS(=O)(=O)O', '158 nM'),
  ('O=C(NNC(=O)[C@@H]1CC[C@@H]2CN1C(=O)N2OS(=O)(=O)O)[C@@H]1CCCNC1', '17 nM');

* * *

- measured-target: AmpC SBL from Escherichia coli (AmpCEC) (Escherichia coli)
- Construct: made in house
- method-notes: AmpCEC inhibition pIC50 with varied preincubation time and pH (FC-5)
- Type: biochemical
- condition-context: pIC50, 10 min preincubation, pH 8.0
Measured IC50 by item
reported-metric: IC50

INSERT INTO results (smiles_string, measured_target, reported_metric, test_result) VALUES
  ('NCCONC(=O)[C@@H]1CC[C@@H]2CN1C(=O)N2OS(=O)(=O)O', 'AmpC SBL from Escherichia coli (AmpCEC) (Escherichia coli)', 'IC50', '58.9 nM'),
  ('O=C(NNC(=O)[C@@H]1CC[C@@H]2CN1C(=O)N2OS(=O)(=O)O)[C@@H]1CCCNC1', 'AmpC SBL from Escherichia coli (AmpCEC) (Escherichia coli)', 'IC50', '8.13 nM'),
  ('O=C(NC1CCNCC1)[C@@H]1CC[C@@H]2CN1C(=O)N2OS(=O)(=O)O', 'AmpC SBL from Escherichia coli (AmpCEC) (Escherichia coli)', 'IC50', '63.1 nM');

Every entry's value here was drawn from paper PMC7849013.
